- Test system: KM12 colon
- Procedure summary: NCI tumour cell line growth inhibition, 48 h
Recorded metric: TGI (µM)
The answer is to be given in µM; state only the numeric part.

The following molecules have reported results that may help.
>>> value_observed("Clc1ccc2nnnn2n1")
4.87
>>> value_observed("O=S(=O)(c1cccc2c(Cl)cccc12)N1CCCNCC1")
28.2
>>> value_observed("O=C(O)C1C(C(=O)O)C23CC2(C(=O)O)C2(C(=O)O)CCC3=C3CCCC312 (stereo not given)")
88.4
>>> value_observed("CCCCCCCCCCCCCCCCOCC(CP(=O)([O-])OCC[n+]1ccccc1)OC (stereo not given)")
5.62
>>> value_observed("C=C1C(=O)OC2C=C(CCC(C)=O)C(C)C(OC(C)=O)CC12 (stereo not given)")
30.5

Look up and report measured TGI (KM12 colon) for the following molecule: `C=C1C(=O)O[C@H]2[C@H]1CCC(/C=N/c1ncc(Br)cc1N)=C\CC[C@@]1(C)O[C@@H]21`
20.2

###

// TGI lookup, one value per entry
- Tested on: NCI-H522 lung
- Procedure summary: NCI tumour cell line growth inhibition, 48 h

>>> value_observed("S=C1CSc2c(ccc3ccccc23)N1")
"> 100 µM"
>>> value_observed("CCOC(=O)[C@@H]1CCN2CN(c3ccc(OC)cc3)N=C(c3ccccc3)[C@@]12c1ccccc1")
"49.5 µM"
>>> value_observed("CCN(C(C)=O)c1cnc(/C=N/NC(N)=S)c2ccccc12")
"> 36.2 µM"

State, in one line, measured TGI of `Cc1c(Cl)c(S(N)(=O)=O)cc2c1NC=NS2(=O)=O`
> 100 µM

Look up and report measured TGI for this entry: `Cc1ccc(N=Nc2ccc(N)cc2C)c(S(N)(=O)=O)c1`
> 100 µM

Consider the molecule `CSc1sc(=S)sc1C(=O)N(C)c1ccccc1` . State its measured TGI.
> 100 µM

###

As shown below, each of these molecules has a reported TGI value.
- System: HL-60(TB) leukemia
- Procedure summary: NCI tumour cell line growth inhibition, 48 h

Solved cases below.
>>> value_observed("Cc1ccc(C(=O)Nc2ccc(CP(=O)(O)O)cc2CP(=O)(O)O)cc1NC(=O)c1cccc(NC(=O)Nc2cccc(C(=O)Nc3cc(C(=O)Nc4ccc(CP(=O)(O)O)cc4CP(=O)(O)O)ccc3C)c2)c1")
"> 100000 nM"
>>> value_observed("CN1C(=O)C(c2c[nH]c3ccccc23)N(C)C(=O)C1c1c[nH]c2ccccc12 (centres undefined)")
"> 100000 nM"
>>> value_observed("CCC[CH2][Sn]([CH2]CCC)([CH2]CCC)[O]C(=O)c1ccc(Cl)cc1Cl")
"494 nM"

Attention now shifts to the item below.
Look up and report measured TGI for this entry: `Nc1ccc(S(=O)(=O)Nc2ccc(Nc3c4ccccc4nc4ccccc34)cc2)cc1`
183 nM

###

Catalogue of TGI values
- Test system: CCRF-CEM leukemia
- Procedure summary: NCI tumour cell line growth inhibition, 48 h

Assign TGI to the following record: O=C(c1ccccc1)C(Br)C(Br)c1cccc([N+](=O)[O-])c1 (configuration not stated)
2.78 µM

Report TGI for COC(=O)c1c2c(cc3c1CC1(Cc4ccc(C(C)=O)cc4C1)C3)CCC2 (configuration not stated)
> 100 µM

Return reported TGI. Input compound: C/C=C(\C)C(=O)OC1C(C)=C2C(C1OC(=O)CCCC)C(C)(OC(C)=O)CC(OC(=O)CCCC)C1(O)C2OC(=O)C1(C)O (configuration not stated)
> 100 µM

###

- Test system: OVCAR-4 ovarian
- Procedure summary: NCI tumour cell line growth inhibition, 48 h
# GI50 annotations

// below: answered compounds
>>> value_observed("O=S(=O)(c1cccc2c(Cl)cccc12)N1CCCNCC1")
"11.2 µM"
>>> value_observed("COc1cc2c(cc1OCCCCCOc1ccc(-n3c(C)nc4ccccc4c3=O)cc1)N=C[C@@H]1CCCN1C2=O")
"0.515 µM"
>>> value_observed("CCCCCCCCCCC(C(O)c1ccccc1)N1CCCCC1 (configuration not stated)")
"3.66 µM"

# assay system OVCAR-4 ovarian: give GI50 of `C=C1C(=O)O[C@H]2[C@H]1CCC(/C=N/c1ncc(Br)cc1N)=C\CC[C@@]1(C)O[C@@H]21`
2.43 µM

Lab note: record GI50 of `COc1ccc(/C=C(\C#N)n2nnc3ccccc32)cc1` tested on OVCAR-4 ovarian.
0.615 µM

For OVCAR-4 ovarian, give GI50 of the listed compound: `CNCCNc1c2c(c(NCCNC)c3[nH]ccc13)C(=O)c1ccccc1C2=O`
1.66 µM

Provide OVCAR-4 ovarian GI50 reading for `O=C1C=CC[C@H](/C=C/c2ccccc2)O1` .
1.39 µM

Under OVCAR-4 ovarian: report GI50 of CCN1C(=O)N(c2ccccc2)C2NC(=S)N(/N=C/C=C/c3ccccc3)C21 (configuration not stated) .
4.68 µM

###

- System: RPMI-8226 leukemia
- Procedure summary: NCI tumour cell line growth inhibition, 48 h
Each record here notes measured TGI.

Example entries begin here.
>>> value_observed("COc1ccc(N2C(=O)C3c4[nH]c5ccccc5c4C4CC(C)CC(C)C4C3C2=O)cc1 (centres undefined)")
"> 100 µM"
>>> value_observed("COc1cccc2c1/c(=C/c1ccc(N(C)C)cc1)c1cc(-c3ccccc3)[n+](C)n12")
"1.27 µM"
>>> value_observed("C[N+]1(Cc2ccc(Cl)c(Cl)c2)CCCC1C1CCCN(Cc2ccc(Cl)c(Cl)c2)C1 (centres undefined)")
"> 100 µM"
>>> value_observed("COc1cc(NC(=O)CSc2nc3ccc(C)cc3c(=O)n2Cc2ccccc2)cc(OC)c1OC")
"> 100 µM"
>>> value_observed("O=C(Nc1ccc2[nH]c(=S)sc2c1)Nc1ccccc1F")
"> 100 µM"

API: the following record is the query input.
Answer with the recorded TGI for the compound listed here: `S=c1ssc(Oc2ccccc2)c1Cl`
7.7 µM

###

- Test system: NCI-H522 lung
- Procedure summary: NCI tumour cell line growth inhibition, 48 h
Consider the following partition of reported TGI into named classes: low group = under 2 µM, middle group = from 2 µM up to 30 µM, high group = 30 µM and over

>>> group("O=P(CCCCP(=O)(c1ccccc1)c1ccccc1)(c1ccccc1)c1ccccc1.[Cl][Sn]([Cl])([c]1ccccc1)[c]1ccccc1")
"low group"
>>> group("O=c1[nH]c(=O)c2cc(C3CC(O)C(CO)O3)ccc2[nH]1 (centres undefined)")
"high group"
>>> group("COc1ccc(C(=O)/C=C/c2ccc3c(c2)OCO3)c(OCc2ccccc2)c1")
"high group"
>>> group("Oc1cc(-c2ccc(Cl)cc2)cn2c1nc1ccccc12")
"high group"

Looking at `COc1cccc2c1C(=O)c1c(O)c3c(c(O)c1C2=O)C[C@@](O)(C(=O)CO)C[C@@H]3O[C@H]1C[C@H](N)[C@@H](O)[C@H](C)O1` , which class would you pick?
low group

Hi there! Could you help me figure out the category for O=C(c1ccccc1)C(Br)C(Br)c1cccc([N+](=O)[O-])c1 (centres undefined) please?
middle group

Any idea which band `FC(F)(F)c1ccc(C#Cc2ccccc2C#Cc2ccccc2)cc1` is in?
high group

Which bin should I file `Cc1cc2sc(C)[n+](CCCOS(=O)(=O)[O-])c2cc1C` under?
high group

###

- System: SK-MEL-5 melanoma
- Procedure summary: NCI tumour cell line growth inhibition, 48 h
Overview of recorded log10 TGI for various molecules
Note: values are log10 of TGI expressed in µM.

These recorded examples may help you get a feel for the data.
>>> value_observed("CC(C)COCC(CN(Cc1ccccc1)c1ccccc1)N1CCCC1 (stereo not given)")
0.48
>>> value_observed("COC(=O)C1(C(=O)OC)Cc2ccc(C)cc2C2=C1C(=O)c1ccccc1C2=O")
1.46
>>> value_observed("Cc1cc2[nH]c(=O)c3c4ccccc4cn3c2cc1C")
1.47
>>> value_observed("COC(=O)c1c2c(cc3c1CC1(Cc4ccc(C(C)=O)cc4C1)C3)CCC2 (stereo not given)")
1.66

Let us move to another entry and its log10 TGI.
Tell us which log10 TGI value is on record for `COc1cc(NC(=O)CSc2nc3ccc(C)cc3c(=O)n2Cc2ccccc2)cc(OC)c1OC`
1.37

###

- Test system: OVCAR-3 ovarian
- Procedure summary: NCI tumour cell line growth inhibition, 48 h
TGI values for the compounds below.

>>> value_observed("OC(CNCC1CCCO1)Cn1c2ccc(Cl)cc2c2cc(Cl)ccc21 (centres undefined)")
"3.28 µM"
>>> value_observed("Cc1cc(NS(=O)(=O)c2ccc(NC(=O)c3ccc(Cl)c4c(Nc5ccc(S(=O)(=O)N=C(N)N)cc5)c5ccccc5nc34)cc2)no1")
"83.7 µM"
>>> value_observed("COc1ccc2c(c1)Oc1cc(O)ccc1[C@@H]2c1ccccc1C(=O)NC(C)c1ccccc1 (some centres undefined)")
"34.5 µM"
>>> value_observed("O=C1CCCC(=O)N1CCc1c[nH]c2ccccc12")
"> 100 µM"

Identify TGI associated with the compound `FC(F)(F)c1ccc(C#Cc2ccccc2C#Cc2ccccc2)cc1`
91.9 µM

Find the measured TGI of `O=P1(c2ccccc2)C(c2ccccc2)=CC=C1c1ccccc1` and report it.
89.8 µM

Query TGI for `Cc1ccc2nc(-c3ccccc3)c(N=O)n2c1`
> 100 µM
